Exercise: state measured percentage damage caused to the plant, five-point scale, SETFA for each of the molecules provided.
Test system: Setaria faberi (SETFA)
Assay: Post-emergence herbicidal glasshouse test
Assay type: in vivo
Settings: post-emergence, 250 g/ha, 13 days after application
Experimental: Seeds of a variety of test species are shown in standard soil in pots Amaranthus retoflexus (AMARE), Ipomoea hederacea (IPOHE), Solanum nigrum (SOLNI), Lolium perenne (LOLPE). Echinochloa crus-galli (ECHCG), Setaria faberi (SETFA)). […] After 13 days for pre and post-emergence, the test is evaluated for the percentage damage caused to the plant. […]

Here is how some molecules turned out for percentage damage caused to the plant, five-point scale, SETFA.
Give percentage damage caused to the plant, five-point scale, SETFA for the following molecule: O=C(O)C(F)(F)c1cc(Cl)cc(Cl)c1
1 (1=0-20%)

Give percentage damage caused to the plant, five-point scale, SETFA for the following molecule: O=C(O)C(F)(F)c1cccc(F)c1F
1 (1=0-20%)

Give percentage damage caused to the plant, five-point scale, SETFA for the following molecule: O=C([O-])C(F)(F)c1cccc(Cl)c1Cl.[Na+]
4 (4=61-80%)

Give percentage damage caused to the plant, five-point scale, SETFA for the following molecule: O=C(O)C(F)(F)c1cccc(Cl)c1Cl [Compound 1.034]
3 (3=41-60%)

Give percentage damage caused to the plant, five-point scale, SETFA for the following molecule: COC(=O)C(F)(F)c1c(Cl)ccc(Cl)c1Cl
1 (1=0-20%)

Give percentage damage caused to the plant, five-point scale, SETFA for the following molecule: O=C(O)C(F)(F)c1ccccc1Cl
1 (1=0-20%)

Go through the list and state percentage damage caused to the plant, five-point scale, SETFA for each entry.
1. O=C(O)C(F)(F)c1cccc(F)c1Br
2. O=C(O)C(F)(F)c1c(Cl)ccc(Cl)c1Cl

1 (1=0-20%)
3 (3=41-60%)

Go through the list and state percentage damage caused to the plant, five-point scale, SETFA for each entry.
1. O=C([O-])C(F)(F)c1cccc(Cl)c1Cl.[K+]
2. COC(=O)C(F)(F)c1ccc(Cl)cc1Cl

["3 (3=41-60%)", "1 (1=0-20%)"]
